System: Cabbage Looper (Trichoplusia ni, TRIPNI)
METHOD_DESCRIPTION: Bioassay on Cabbage Looper (CL), 128-well diet tray assay
Assay type: in vivo
STATED_CONDITIONS: Trichoplusia ni; Cabbage Looper, 128-well diet tray assay; read-out: CL rating
READOUT_LABEL: pest or weed control at 50 µg/cm2

Per the records, this compound ( O=C(Nc1ccc(Cl)cc1F)c1cc(NC(=O)C2C(c3cc(Cl)cc(Cl)c3)C2(Cl)Cl)ccc1Cl (stereo not shown) [PF116] ) has pest or weed control at 50 µg/cm2 equal to 50 to 100%

For record CC(C)(C)OC(=O)N(C(=O)OC(C)(C)C)c1c(F)ccc(NC(=O)c2cc(NC(=O)[C@H]3[C@H](c4ccc(Cl)c(Cl)c4)C3(Cl)Cl)ccc2Cl)c1F [F500] the listed pest or weed control at 50 µg/cm2 is 0 to 50%

The compound listed as CN(C(=O)c1cc(NC(=O)[C@H]2[C@H](c3ccc(C(F)F)c(Cl)c3)C2(Cl)Cl)ccc1Cl)c1ccc(F)cc1 (relative stereo) [F596] has a reported pest or weed control at 50 µg/cm2 of 50 to 100%

Given item O=C(Nc1ccc(-n2cnnc2)cc1)c1cc(NC(=O)[C@H]2[C@H](c3cc(Cl)cc(Cl)c3)C2(Cl)Cl)ccc1Cl (relative stereo) [PF102] , the value recorded as its pest or weed control at 50 µg/cm2 is 50 to 100%

So for O=C(Nc1ccc(NC(=O)C(F)(F)F)cc1)c1cc(NC(=O)[C@H]2[C@H](c3cc(Cl)cc(Cl)c3)C2(Cl)Cl)ccc1Cl (relative stereo) [PF24] , the logged pest or weed control at 50 µg/cm2 turned out to be 50 to 100%

Briefly, pest or weed control at 50 µg/cm2 measured for O=C(Nc1nc2ccc(F)cc2[nH]1)c1cc(NC(=O)C2C(c3cc(Cl)cc(Cl)c3)C2(Cl)Cl)ccc1Cl (stereo not shown) [F451] : 50 to 100%

Consider C=C(F)c1cc(NC(=O)c2cc(NC(=O)[C@H]3[C@H](c4cc(Cl)cc(Cl)c4)C3(Cl)Cl)ccc2Cl)cnc1F (relative stereo) [F400] . Its measured pest or weed control at 50 µg/cm2 is 50 to 100%

Just so you know, measured pest or weed control at 50 µg/cm2 for Nc1cc(F)cc(NC(=O)c2cc(NC(=O)[C@H]3[C@H](c4cc(Cl)cc(Cl)c4)C3(Cl)Cl)ccc2Cl)c1 [F419] came out at 50 to 100%

The compound listed as O=C(Nc1nc2cc(F)ccc2s1)c1cc(NC(=O)C2C(c3cc(Cl)cc(Cl)c3)C2(Cl)Cl)ccc1Cl (stereo not shown) [F442] shows pest or weed control at 50 µg/cm2 equal to 50 to 100%

Query N#Cc1cc(F)ccc1NC(=O)c1cc(NC(=O)[C@@H]2[C@@H](c3cc(Cl)cc(Cl)c3)C2(Cl)Cl)ccc1Cl [F536] yields pest or weed control at 50 µg/cm2 of 50 to 100%

Lookup result for O=C(Nc1ncc(F)cc1F)c1cc(NC(=O)[C@H]2[C@H](c3ccc(C(F)F)cc3)C2(Cl)Cl)ccc1Cl (relative stereo) [F591] ; measured pest or weed control at 50 µg/cm2: 50 to 100%

Data point: CC(C)(C)OC(=O)N(C(=O)OC(C)(C)C)c1c(F)ccc(NC(=O)c2cc(NC(=O)[C@H]3[C@H](c4ccc(F)c(Cl)c4)C3(Cl)Cl)ccc2Cl)c1F [F503] ; pest or weed control at 50 µg/cm2 = 50 to 100%

The recorded pest or weed control at 50 µg/cm2 for entry COc1c(F)cc([C@H]2[C@H](C(=O)Nc3ccc(Cl)c(C(=O)Nc4ccc(F)cc4F)c3)C2(Cl)Cl)cc1Br (relative stereo) [F543] equals 50 to 100%

###

So I've got a bunch of compounds here, and I need their melting point values.

Value of measured melting point for the entry `CCc1ccc(N)cc1C(=O)Nc1ccc(F)cc1` : 129 to 131 °C

Record summary for `O=C(Nc1ccc(F)cc1)c1cccc([N+](=O)[O-])n1` : reported melting point = 169 to 170 °C

What the record says about Cc1cc(C2C(C(=O)O)C2(Cl)Cl)cc(Cl)c1Cl (stereo not drawn) : melting point is 157 to 159 °C

Record `CC(C)(C)OC(=O)N(C(=O)OC(C)(C)C)c1ccc(F)cc1N` , field melting point: 104 to 115 °C

In plain terms, `O=C(Nc1ccc(F)c(C(F)(F)F)c1)c1cc([N+](=O)[O-])ccc1Cl` has a documented melting point of 192 to 202 °C

For this compound ( N#Cc1cc(Cl)cc(C2C(C(=O)O)C2(Cl)Cl)c1 (stereo not drawn) ), measured melting point is 173 to 175 °C

###

Please provide measured pest or weed control at 50 µg/cm2 for the entries that follow.
Test system: Cabbage Looper (Trichoplusia ni, TRIPNI)
METHOD_DESCRIPTION: Bioassay on Cabbage Looper (CL), 128-well diet tray assay
Type: in vivo
STATED_CONDITIONS: Trichoplusia ni; Cabbage Looper, 128-well diet tray assay; read-out: CL rating

Lab book: pest or weed control at 50 µg/cm2 of `Nc1ccc(F)cc1NC(=O)c1cc(NC(=O)[C@H]2[C@H](c3cc(Cl)cc(Cl)c3)C2(Cl)Cl)ccc1Cl` noted as 50 to 100%

# pest or weed control at 50 µg/cm2 (molecule: O=C(Nc1ccc(OCC(F)(F)F)cc1)c1cc(NC(=O)[C@H]2[C@H](c3cc(Cl)cc(Cl)c3)C2(Cl)Cl)ccc1Cl (relative stereo) ) is 50 to 100%

# pest or weed control at 50 µg/cm2 (molecule: O=C(Nc1ccc(NC(=O)c2cc(NC(=O)[C@H]3[C@H](c4cc(Cl)cc(Cl)c4)C3(Cl)Cl)ccc2Cl)cc1)c1ccccc1 (relative stereo) ) is 50 to 100%

###

Test system: Cabbage Looper (Trichoplusia ni, TRIPNI)
METHOD_DESCRIPTION: Bioassay on Cabbage Looper (CL), 128-well diet tray assay
Assay type: in vivo
STATED_CONDITIONS: Trichoplusia ni; Cabbage Looper, 128-well diet tray assay; read-out: CL rating
Could you please report measured pest or weed control at 50 µg/cm2 for the items listed next?

Lab note: CN1Cc2cc(NC(=O)c3cc(NC(=O)[C@H]4[C@H](c5cc(Cl)cc(Cl)c5)C4(Cl)Cl)ccc3Cl)ccc2C1=O (relative stereo) gave pest or weed control at 50 µg/cm2 of 50 to 100%

// pest or weed control at 50 µg/cm2 lookup, compound = O=C(Nc1cc(Cl)ccn1)c1cc(NC(=O)[C@H]2[C@H](c3cc(Cl)cc(Cl)c3)C2(Cl)Cl)ccc1Cl (relative stereo) , result: 50 to 100%

Per the records, this compound ( Cc1cc(NC(=O)c2cc(NC(=O)[C@H]3[C@H](c4cc(Cl)cc(Cl)c4)C3(Cl)Cl)ccc2Cl)ccc1Cl (relative stereo) ) has pest or weed control at 50 µg/cm2 equal to 50 to 100%

###

I'd appreciate it if you could supply melting point values for the items below.

The measured melting point associated with `C=Cc1ccc([N+](=O)[O-])cc1C(=O)Nc1ccc(F)cc1` reads 158 to 160 °C

Lab note: `COc1ccc(/C=C/c2ccc(Cl)c(Cl)c2)cc1` gave melting point of 91 to 94 °C

Short answer for `Cc1cc(NC(=O)OC(C)(C)C)ccc1NC(=O)c1cc([N+](=O)[O-])ccc1Cl` : melting point was 195 to 200 °C

The compound listed as Cc1cc(Cl)cc(C2C(C(=O)O)C2(Cl)Cl)c1 (centres unmarked) shows melting point equal to 124 to 126 °C

Recorded melting point (compound `O=C(Nc1ccc(-c2ncco2)cc1)c1cc([N+](=O)[O-])ccc1Cl` ): 192 to 194 °C

Entry O=C(O)C1C(c2cc(Cl)cc(C(F)(F)F)c2)C1(Cl)Cl (centres unmarked) , melting point reported as 113 to 115 °C

The compound listed as O=C(O)C1C(c2cc(Cl)cc(Br)c2)C1(Cl)Cl (centres unmarked) shows melting point equal to 161 to 163 °C

The reported value for O=C(O)C1C(c2cc(C(F)(F)F)cc(C(F)(F)F)c2)C1(Cl)Cl (centres unmarked) in terms of melting point is 112 to 114 °C

Form: compound = `O=C(Nc1ccc(F)cc1)c1cc(Cl)cc([N+](=O)[O-])c1` ; melting point = 209 to 210 °C

Value of measured melting point for the entry COc1c(Cl)cc(C2C(C(=O)O)C2(Cl)Cl)cc1Cl (centres unmarked) : 161 to 164 °C

Form field melting point, entry O=C(O)C1C(c2cc(Cl)c(Cl)cc2Cl)C1(Cl)Cl (centres unmarked) : 189 to 192 °C

Entry O=C(O)C1C(c2ccc(F)c(Cl)c2)C1(Cl)Cl (centres unmarked) [C16] — recorded melting point = 121 to 123 °C

The compound identified as O=C(O)C1C(c2ccc(C(F)(F)C(F)(F)F)cc2)C1(Cl)Cl (centres unmarked) registered its melting point at 116 to 118 °C

// sample `Nc1ccc(OC(F)(F)F)c(C(=O)Nc2ccc(F)cc2)c1` , its melting point was 115 to 117 °C

`Cc1ccc(C(=O)Nc2ccc(F)cc2)cc1[N+](=O)[O-]` has a reported melting point of 136 to 138 °C

Entry `Cc1ccc([N+](=O)[O-])cc1N(C)C(=O)OC(C)(C)C` , melting point reported as 57 to 60 °C

Lab note: measured melting point of COc1ccc(C2C(c3cc(F)c(Br)c(F)c3)C2(Cl)Cl)cc1 (centres unmarked) was 104 to 109.3 °C

melting point recorded for this compound, `Nc1cc(Cl)cc(C(=O)Nc2ccc(F)cc2)c1` , is 133 to 136 °C

melting point reported for this compound `O=C(Nc1ccc(-n2cccn2)cc1)c1cc([N+](=O)[O-])ccc1Cl` : 200 to 205 °C

// melting point value for `O=C(Nc1ccc(F)cc1)c1cc([N+](=O)[O-])ccc1OC(F)(F)F` : 175 to 177 °C

melting point reading for Cc1c(Cl)cc(C2C(C(=O)O)C2(Cl)Cl)cc1Cl (centres unmarked) : 181 to 183 °C

Reported melting point of O=C(O)C1C(c2cc(Br)cc(Br)c2)C1(Cl)Cl (centres unmarked) : 157 to 159 °C

For record COc1c(Cl)cc(C2C(C(=O)Nc3ccc(Cl)c(C(=O)O)c3)C2(Cl)Cl)cc1Cl (centres unmarked) the listed melting point is 227 to 231 °C

The recorded melting point for O=C(O)C1C(c2cccc(C(F)(F)F)c2)C1(Cl)Cl (centres unmarked) is 86 to 88 °C

Note to self: melting point recorded for `Nc1ccc(Cl)c(C(=O)Nc2ccc(-c3ncco3)cc2)c1` was 227 °C (dec.)

Lookup result for O=C(O)c1cc(NC(=O)C2C(c3cc(Cl)cc(Cl)c3)C2(Cl)Cl)cc(Cl)c1Cl (centres unmarked) ; measured melting point: 231 to 235 °C

# melting point (compound: O=C(O)c1cc(NC(=O)C2C(c3cc(Cl)cc(Cl)c3)C2(Cl)Cl)c(Cl)cc1Cl (centres unmarked) ) is 263 to 266 °C

Consider `CC(C)(C)OC(=O)N(C(=O)OC(C)(C)C)c1c(N)cc(F)cc1F` . Its measured melting point is 102 to 107 °C

Looking up `Nc1ccc(Cl)c(C(=O)Nc2ccc(-n3cccn3)cc2)c1` , I see its melting point listed as 50 to 81 °C

Per the records, this compound ( O=C(O)C1C(c2ccc(F)c(Cl)c2)C1(Cl)Cl (centres unmarked) [C420] ) has melting point equal to 119 to 121 °C

melting point reading for O=C(O)C1C(c2cc(F)cc(Cl)c2)C1(Cl)Cl (centres unmarked) : 138 to 140 °C

Per the records, this compound ( `Cc1cc(NC(=O)OC(C)(C)C)ccc1NC(=O)c1cccc(N)c1` ) has melting point equal to 143 to 161 °C

Data point: CCOc1ccc(C2C(C(=O)O)C2(Cl)Cl)cc1 (centres unmarked) ; melting point = 129 to 130 °C

For reference, reported melting point for O=C(O)C1C(c2ccc(Cl)c(F)c2)C1(Cl)Cl (centres unmarked) stands at 140 to 142 °C

Lab book: melting point of `Cc1cc([N+](=O)[O-])ccc1N(C)C(=O)OC(C)(C)C` noted as 98 to 101 °C

Quick note, melting point for O=C(O)C1C(c2cc(F)c(Br)c(F)c2)C1(Cl)Cl (centres unmarked) landed at 178.3 to 188.6 °C

Entry under test: `Cc1ccc([N+](=O)[O-])cc1NC(=O)OC(C)(C)C` . Its melting point was 137 to 145 °C

Lab book: melting point of O=C(O)C1C(c2ccc(OC(F)(F)F)c(Cl)c2)C1(Cl)Cl (centres unmarked) noted as 134 to 136 °C
